Consider the following compounds and their measured melting point readings.

# Test Smiles, melting point
rows = [
    ("C[C@]12CCC(=O)C[C@H]1CC[C@H]1[C@@H]3CCC(=O)[C@@]3(C)CC[C@@]12O", "213 to 216 °C"),
    ("C/C=C1/CC[C@H]2[C@@H]3CC[C@@H]4C[C@H](OC(C)=O)CC[C@]4(C)C3=CC[C@]12C", "93.9 to 97.8 °C"),
    ("COC(=O)CC[C@@H](C)[C@H]1CC[C@H]2[C@@H]3CC[C@@H]4C[C@H](OC(C)=O)CC[C@]4(C)[C@H]3C[C@H](O)[C@]12C", "104.2 to 107.7 °C"),
    ("COC(=O)CC[C@@H](C)[C@H]1CC[C@H]2[C@@H]3CC[C@@H]4C[C@H](OC(C)=O)CC[C@]4(C)C3=CC[C@]12C", "122.1 to 123.9 °C"),
    ("COC(=O)CC[C@@H](C)[C@H]1CC[C@H]2[C@@H]3CC[C@@H]4C[C@H](OC(C)=O)CC[C@]4(C)[C@H]3CC(=O)[C@]12C", "142.2 to 144.4 °C"),
    ("COC(=O)/C=C/[C@@H](C)C1=CC[C@H]2[C@@H]3CC[C@@H]4C[C@H](OC(C)=O)CC[C@]4(C)C3=CC[C@]12C", "114 to 116 °C"),
    ("C/C=C1/CC[C@H]2[C@@H]3CC[C@@H]4C[C@H](O)CC[C@]4(C)C3=CC[C@]12C", "146 to 147.3 °C"),
]
